Target: Tumor necrosis factor ligand superfamily member 6 (Homo sapiens, UniProt P48023)
Sequence (P48023 whole entry): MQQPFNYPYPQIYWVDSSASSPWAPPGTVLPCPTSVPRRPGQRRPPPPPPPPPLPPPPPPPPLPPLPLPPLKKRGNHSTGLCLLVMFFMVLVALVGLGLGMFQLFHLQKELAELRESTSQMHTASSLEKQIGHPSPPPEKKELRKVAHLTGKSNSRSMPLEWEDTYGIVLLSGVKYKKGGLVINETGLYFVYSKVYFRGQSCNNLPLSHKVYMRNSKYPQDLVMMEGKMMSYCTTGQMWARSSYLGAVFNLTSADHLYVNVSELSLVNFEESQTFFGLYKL
pIC50: −log10 of the molar value.
ENDPOINT_NAME: pIC50

(Q) Reported pIC50, compound Cc1nc2cc(F)c(-c3cnc(C(C)(C)O)nc3)nc2c(N[C@H](C)c2cc(C#N)ccc2F)c1Cl : ____
(A) < 5.00
